All values here come from ChEMBL document CHEMBL1255318.

- assay details: Tmax in […] at […], po administered as single dose measured on day 1 by HPLC
- Assay type: ADME, organism-based
- Set-up: route oral
- condition: human, in vivo
measure name: Tmax (h)
# unit: h | format: bare number

stdin: Give its Tmax value. Item: NCCCCN(Cc1nc2ccccc2[nH]1)[C@H]1CCCc2cccnc21
stdout: 3

###

- assay details: Apparent volume of distribution during terminal phase in […] at […], po administered as single dose measured on day 17 by HPLC in presence of 29 doses of […]
- Type: ADME, organism-based
- condition: human, in vivo, read-out: Vz/F
measure name: Vd/F (L)
# unit: L | format: bare number

stdin: Give its Vd/F value. Item: NCCCCN(Cc1nc2ccccc2[nH]1)[C@H]1CCCc2cccnc21
stdout: 3930

###

- assay details: AUC in rat in presence of ritonavir
- Format: ADME, organism-based
- condition: plasma
measure name: AUC (µg·h/mL)
# unit: µg·h/mL | format: bare number

stdin: Give its AUC value. Item: NCCCCN(Cc1nc2ccccc2[nH]1)[C@H]1CCCc2cccnc21
stdout: 0.058

###

- assay details: Apparent volume of distribution during terminal phase in […] at […], po administered as single dose measured on day 1 by HPLC
- Type: ADME, organism-based
- Parameters: route oral
- condition: human, in vivo, read-out: Vz/F
measure name: Vd/F (L)
# unit: L | format: bare number

stdin: Give its Vd/F value. Item: NCCCCN(Cc1nc2ccccc2[nH]1)[C@H]1CCCc2cccnc21
stdout: 4200

###

- assay details: Oral bio availability in rat in presence of ritonavir
- Assay type: ADME, organism-based
- condition: in vivo
measure name: bioavailability (%)
# unit: % | format: bare number

stdin: Give its bioavailability value. Item: NCCCCN(Cc1nc2ccccc2[nH]1)[C@H]1CCCc2cccnc21 [MAVORIXAFOR]
stdout: 66

###

- assay details: Apparent volume of distribution during terminal phase in […] at […], po administered as single dose measured on day 3 by HPLC in presence of […]
- Type: ADME, organism-based
- condition: human, in vivo, read-out: Vz/F
measure name: Vd/F (L)
# unit: L | format: bare number

stdin: Give its Vd/F value. Item: NCCCCN(Cc1nc2ccccc2[nH]1)[C@H]1CCCc2cccnc21 [MAVORIXAFOR]
stdout: 3450

###

- assay details: Cmax in […] at […], po administered as single dose measured on day 1 by HPLC
- Type: ADME, organism-based
- Design: route oral
- condition: human, in vivo
measure name: Cmax (ng/mL)
# unit: ng/mL | format: bare number

stdin: Give its Cmax value. Item: NCCCCN(Cc1nc2ccccc2[nH]1)[C@H]1CCCc2cccnc21 [MAVORIXAFOR]
stdout: 256

###

- assay details: Tmax in […] at […], po administered as single dose measured on day 17 by HPLC in presence of 29 doses of […]
- Assay type: ADME, organism-based
- condition: human, in vivo
measure name: Tmax (h)
# unit: h | format: bare number

stdin: Give its Tmax value. Item: NCCCCN(Cc1nc2ccccc2[nH]1)[C@H]1CCCc2cccnc21
stdout: 1
